The measurements presented in this section are drawn from PubChem BioAssay.

molecular target: Voltage-gated potassium channel subunit beta-2 (Rattus norvegicus) (UniProt P62483); experiment: KvBeta enzyme negative modulators, primary screen, biochemical, NADPH fluorescence (AID 622); conditions: recombinant KvBeta, 4-cyanobenzaldehyde reduction, at 10 µM, active compounds read high;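 further: slope of raw intensity against log time taken from 70 to 1610 s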
Sequence (P62483 whole entry, looked up): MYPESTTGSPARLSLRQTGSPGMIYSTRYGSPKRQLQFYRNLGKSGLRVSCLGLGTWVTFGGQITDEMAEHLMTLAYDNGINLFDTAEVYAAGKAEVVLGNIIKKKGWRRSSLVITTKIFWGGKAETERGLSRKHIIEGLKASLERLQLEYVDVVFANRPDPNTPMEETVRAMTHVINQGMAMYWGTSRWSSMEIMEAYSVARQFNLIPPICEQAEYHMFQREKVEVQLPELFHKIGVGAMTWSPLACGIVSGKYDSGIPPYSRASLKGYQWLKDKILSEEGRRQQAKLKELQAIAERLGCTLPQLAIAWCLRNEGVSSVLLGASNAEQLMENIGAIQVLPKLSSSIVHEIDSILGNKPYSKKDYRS
Active and inactive are the calls of the source.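 How the source made its calls: active means fluorescence slope higher than the sample average by over 3 SD (cut at about -0.22 in these data, passing the limit was not always enough); inactive means the rest.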
// reported fluorescence slope for each item listed

{"COMPOUND": "CCC(=O)Nc1nc2ccccc2n1Cc1ccccc1C", "ASSAYED_SYSTEM": "Voltage-gated potassium channel subunit beta-2 (Rattus norvegicus) (UniProt P62483)", "fluorescence slope": "-0.407 (inactive)"}
{"COMPOUND": "CC(C(=O)NC(=O)NCc1ccccc1)N1C(=O)c2ccccc2C1=O (stereo not given)", "ASSAYED_SYSTEM": "Voltage-gated potassium channel subunit beta-2 (Rattus norvegicus) (UniProt P62483)", "fluorescence slope": "-0.461 (inactive)"}
{"COMPOUND": "CCOC(=O)CN1CC23C=CC(O2)C(C(=O)Nc2ccc(OCC)cc2)C3C1=O (stereo not given)", "ASSAYED_SYSTEM": "Voltage-gated potassium channel subunit beta-2 (Rattus norvegicus) (UniProt P62483)", "fluorescence slope": "-0.517 (inactive)"}
{"COMPOUND": "COc1nc(OC)nc(N2CCC(C(=O)NCc3cccs3)CC2)n1", "ASSAYED_SYSTEM": "Voltage-gated potassium channel subunit beta-2 (Rattus norvegicus) (UniProt P62483)", "fluorescence slope": "-0.528 (inactive)"}
{"COMPOUND": "CCCn1cc(C(CC(=O)O)C(=O)O)c2ccccc21 (stereo not given)", "ASSAYED_SYSTEM": "Voltage-gated potassium channel subunit beta-2 (Rattus norvegicus) (UniProt P62483)", "fluorescence slope": "-0.399 (inactive)"}
{"COMPOUND": "O=C(NCCCNCc1ccccc1)/C(=N\\O)c1ccccc1", "ASSAYED_SYSTEM": "Voltage-gated potassium channel subunit beta-2 (Rattus norvegicus) (UniProt P62483)", "fluorescence slope": "-0.401 (inactive)"}
{"COMPOUND": "CC(C)CC1NC2(C(=O)N(C)c3ccccc32)C2C(=O)N(C(C)C)C(=O)C12 (stereo not given)", "ASSAYED_SYSTEM": "Voltage-gated potassium channel subunit beta-2 (Rattus norvegicus) (UniProt P62483)", "fluorescence slope": "-0.482 (inactive)"}
{"COMPOUND": "Cn1c(=N)c(S(=O)(=O)c2ccc(Cl)cc2)cc2c(=O)n3ccccc3nc21", "ASSAYED_SYSTEM": "Voltage-gated potassium channel subunit beta-2 (Rattus norvegicus) (UniProt P62483)", "fluorescence slope": "-0.405 (inactive)"}
{"COMPOUND": "Cc1cccn2c(=O)c(/C=C(\\C#N)S(=O)(=O)c3ccccc3)c(N3CCN(C)CC3)nc12", "ASSAYED_SYSTEM": "Voltage-gated potassium channel subunit beta-2 (Rattus norvegicus) (UniProt P62483)", "fluorescence slope": "-0.457 (inactive)"}
{"COMPOUND": "CCOc1ccc(C(=O)OCc2nnc(-c3cccs3)o2)cc1OC", "ASSAYED_SYSTEM": "Voltage-gated potassium channel subunit beta-2 (Rattus norvegicus) (UniProt P62483)", "fluorescence slope": "-0.603 (inactive)"}
{"COMPOUND": "CCOC(=O)C(C)n1cnc2c(nnn2Cc2ccc(C)cc2)c1=O (stereo not given)", "ASSAYED_SYSTEM": "Voltage-gated potassium channel subunit beta-2 (Rattus norvegicus) (UniProt P62483)", "fluorescence slope": "-0.503 (inactive)"}
{"COMPOUND": "CCOC(=O)c1c(C)[nH]c(C(=O)COC(=O)c2ccc(F)c(S(=O)(=O)N3CCOCC3)c2)c1C", "ASSAYED_SYSTEM": "Voltage-gated potassium channel subunit beta-2 (Rattus norvegicus) (UniProt P62483)", "fluorescence slope": "-0.6 (inactive)"}
{"COMPOUND": "CCN(CC)CCCN1C(=O)C(=O)/C(=C(/O)c2ccc3c(c2)CC(C)O3)C1c1cccnc1 (stereo not given)", "ASSAYED_SYSTEM": "Voltage-gated potassium channel subunit beta-2 (Rattus norvegicus) (UniProt P62483)", "fluorescence slope": "-0.502 (inactive)"}
{"COMPOUND": "O=C(NC1CCCCC1)C(c1ccccc1)N(Cc1ccco1)C(=O)Cn1cnc2ccccc21 (stereo not given)", "ASSAYED_SYSTEM": "Voltage-gated potassium channel subunit beta-2 (Rattus norvegicus) (UniProt P62483)", "fluorescence slope": "-0.586 (inactive)"}
{"COMPOUND": "COCCSc1ccccc1C(=O)Nc1nncs1", "ASSAYED_SYSTEM": "Voltage-gated potassium channel subunit beta-2 (Rattus norvegicus) (UniProt P62483)", "fluorescence slope": "-0.598 (inactive)"}
{"COMPOUND": "O=C(O)C1CC(=O)N(Cc2cccs2)C1 (stereo not given)", "ASSAYED_SYSTEM": "Voltage-gated potassium channel subunit beta-2 (Rattus norvegicus) (UniProt P62483)", "fluorescence slope": "-0.404 (inactive)"}
{"COMPOUND": "O=C(Nc1ccc(N2C(=O)C3C4C=CC(C4)C3C2=O)cc1)Nc1nncs1 (stereo not given)", "ASSAYED_SYSTEM": "Voltage-gated potassium channel subunit beta-2 (Rattus norvegicus) (UniProt P62483)", "fluorescence slope": "-0.579 (inactive)"}
{"COMPOUND": "O=S(=O)(c1ccccc1)N(CC(O)CN1CCCCC1)c1ccccc1 (stereo not given)", "ASSAYED_SYSTEM": "Voltage-gated potassium channel subunit beta-2 (Rattus norvegicus) (UniProt P62483)", "fluorescence slope": "-0.342 (inactive)"}
{"COMPOUND": "O=C(CSc1nnc(-c2ccccc2)o1)N1CCN(c2ccccc2)CC1", "ASSAYED_SYSTEM": "Voltage-gated potassium channel subunit beta-2 (Rattus norvegicus) (UniProt P62483)", "fluorescence slope": "-0.406 (inactive)"}
{"COMPOUND": "CCCCNC(=O)OCCNC(=O)NC", "ASSAYED_SYSTEM": "Voltage-gated potassium channel subunit beta-2 (Rattus norvegicus) (UniProt P62483)", "fluorescence slope": "-0.317 (inactive)"}
{"COMPOUND": "COc1cc(NC(=O)C2CCCN2S(=O)(=O)c2cccc3cccnc23)cc(OC)c1OC (stereo not given)", "ASSAYED_SYSTEM": "Voltage-gated potassium channel subunit beta-2 (Rattus norvegicus) (UniProt P62483)", "fluorescence slope": "-0.598 (inactive)"}
{"COMPOUND": "Cc1cc(C)c2c(=O)n(CC(=O)N3CCC(Cc4ccccc4)CC3)sc2n1", "ASSAYED_SYSTEM": "Voltage-gated potassium channel subunit beta-2 (Rattus norvegicus) (UniProt P62483)", "fluorescence slope": "-0.559 (inactive)"}
{"COMPOUND": "CS(=O)(=O)N1CCN(c2ccccc2NC(=O)c2ccc(-c3ccc(Cl)cc3Cl)o2)CC1", "ASSAYED_SYSTEM": "Voltage-gated potassium channel subunit beta-2 (Rattus norvegicus) (UniProt P62483)", "fluorescence slope": "-0.357 (inactive)"}
{"COMPOUND": "COc1ccc(-c2nn3c(-c4cccc(C)c4)nnc3s2)cc1OC", "ASSAYED_SYSTEM": "Voltage-gated potassium channel subunit beta-2 (Rattus norvegicus) (UniProt P62483)", "fluorescence slope": "-0.419 (inactive)"}
{"COMPOUND": "N#CCSc1nc2c(c(=O)n1Cc1ccco1)C1(CCCC1)Cc1ccccc1-2", "ASSAYED_SYSTEM": "Voltage-gated potassium channel subunit beta-2 (Rattus norvegicus) (UniProt P62483)", "fluorescence slope": "-0.397 (inactive)"}
{"COMPOUND": "Cc1cc(C)n(CC2CC(=O)N(c3ccc(C)c(Cl)c3)C2=O)n1 (stereo not given)", "ASSAYED_SYSTEM": "Voltage-gated potassium channel subunit beta-2 (Rattus norvegicus) (UniProt P62483)", "fluorescence slope": "-0.517 (inactive)"}
{"COMPOUND": "CC(C)Sc1nnc2n(CCc3ccccc3)c(=O)c3c4c(sc3n12)COC(C)(C)C4", "ASSAYED_SYSTEM": "Voltage-gated potassium channel subunit beta-2 (Rattus norvegicus) (UniProt P62483)", "fluorescence slope": "-0.435 (inactive)"}
{"COMPOUND": "CCSC1=C(C#N)C(c2cccs2)C(C(=O)OC)=C(C)N1 (stereo not given)", "ASSAYED_SYSTEM": "Voltage-gated potassium channel subunit beta-2 (Rattus norvegicus) (UniProt P62483)", "fluorescence slope": "-0.442 (inactive)"}
{"COMPOUND": "CCOC(=O)c1sc2nc(N3CCCC3)c3c(c2c1N)CC(C)(C)OC3", "ASSAYED_SYSTEM": "Voltage-gated potassium channel subunit beta-2 (Rattus norvegicus) (UniProt P62483)", "fluorescence slope": "-0.302 (inactive)"}
{"COMPOUND": "CC(=O)Nc1ccc(OCC(O)CN2CCN(c3cccc(Cl)c3)CC2)cc1 (stereo not given)", "ASSAYED_SYSTEM": "Voltage-gated potassium channel subunit beta-2 (Rattus norvegicus) (UniProt P62483)", "fluorescence slope": "-0.481 (inactive)"}
{"COMPOUND": "CCCc1nc2n[nH]c(N)c2c2c1COC(C)(C)C2", "ASSAYED_SYSTEM": "Voltage-gated potassium channel subunit beta-2 (Rattus norvegicus) (UniProt P62483)", "fluorescence slope": "-0.369 (inactive)"}
{"COMPOUND": "CCOC(=O)c1c(C)n(C)c2ccc(O)c(CN3CCCCC3)c12", "ASSAYED_SYSTEM": "Voltage-gated potassium channel subunit beta-2 (Rattus norvegicus) (UniProt P62483)", "fluorescence slope": "-0.442 (inactive)"}
{"COMPOUND": "Cc1cc(C)cc(C(=O)N2CCC(C(N)=O)CC2)c1", "ASSAYED_SYSTEM": "Voltage-gated potassium channel subunit beta-2 (Rattus norvegicus) (UniProt P62483)", "fluorescence slope": "-0.297 (inactive)"}
{"COMPOUND": "CCCc1cc(=O)oc2c(C)c3occ(C)c3cc12", "ASSAYED_SYSTEM": "Voltage-gated potassium channel subunit beta-2 (Rattus norvegicus) (UniProt P62483)", "fluorescence slope": "-0.57 (inactive)"}
{"COMPOUND": "CCCC(=O)N1CCc2[nH]c3ccccc3c2C1", "ASSAYED_SYSTEM": "Voltage-gated potassium channel subunit beta-2 (Rattus norvegicus) (UniProt P62483)", "fluorescence slope": "-0.485 (inactive)"}
{"COMPOUND": "O=C(COc1ccc(Cl)cc1)Nc1ccccc1CO", "ASSAYED_SYSTEM": "Voltage-gated potassium channel subunit beta-2 (Rattus norvegicus) (UniProt P62483)", "fluorescence slope": "-0.435 (inactive)"}
{"COMPOUND": "CCCCCC1CC(CC(=O)O)C(=O)O1 (stereo not given)", "ASSAYED_SYSTEM": "Voltage-gated potassium channel subunit beta-2 (Rattus norvegicus) (UniProt P62483)", "fluorescence slope": "-0.4 (inactive)"}
{"COMPOUND": "CCOc1ccccc1NC(=O)CCSc1nc2n[nH]c(C)c2c(=N)n1-c1ccccc1Cl", "ASSAYED_SYSTEM": "Voltage-gated potassium channel subunit beta-2 (Rattus norvegicus) (UniProt P62483)", "fluorescence slope": "-0.417 (inactive)"}
{"COMPOUND": "Cc1nnc2n(-c3ccc(Cl)cc3)c(=O)c3c4c(sc3n12)CN(C)CC4", "ASSAYED_SYSTEM": "Voltage-gated potassium channel subunit beta-2 (Rattus norvegicus) (UniProt P62483)", "fluorescence slope": "-0.477 (inactive)"}
{"COMPOUND": "COc1cccc(C2/C(=C(\\O)c3ccc4c(c3)OCCO4)C(=O)C(=O)N2CCCN(C)C)c1OC (stereo not given)", "ASSAYED_SYSTEM": "Voltage-gated potassium channel subunit beta-2 (Rattus norvegicus) (UniProt P62483)", "fluorescence slope": "-0.452 (inactive)"}
{"COMPOUND": "COCCn1c(SCc2csc(-c3ccccc3)n2)nc2ccccc21", "ASSAYED_SYSTEM": "Voltage-gated potassium channel subunit beta-2 (Rattus norvegicus) (UniProt P62483)", "fluorescence slope": "-0.456 (inactive)"}
{"COMPOUND": "O=C(CC(c1ccco1)S(=O)(=O)c1ccccc1)c1ccc(F)cc1 (stereo not given)", "ASSAYED_SYSTEM": "Voltage-gated potassium channel subunit beta-2 (Rattus norvegicus) (UniProt P62483)", "fluorescence slope": "-0.413 (inactive)"}
{"COMPOUND": "CN(C)C(=O)c1ccc(COc2ccccc2Br)o1", "ASSAYED_SYSTEM": "Voltage-gated potassium channel subunit beta-2 (Rattus norvegicus) (UniProt P62483)", "fluorescence slope": "-0.606 (inactive)"}
{"COMPOUND": "O=S(=O)(/C=C/c1ccccc1)Nc1ccc2c(c1)OCO2", "ASSAYED_SYSTEM": "Voltage-gated potassium channel subunit beta-2 (Rattus norvegicus) (UniProt P62483)", "fluorescence slope": "-0.476 (inactive)"}
{"COMPOUND": "COc1ccc(NC(=O)CCS(=O)(=O)c2ccc(OC)cc2)cc1", "ASSAYED_SYSTEM": "Voltage-gated potassium channel subunit beta-2 (Rattus norvegicus) (UniProt P62483)", "fluorescence slope": "-0.539 (inactive)"}
